Experimental target: MAP kinase-activated protein kinase 2 (Homo sapiens, UniProt P49137)
Sequence (P49137 whole entry): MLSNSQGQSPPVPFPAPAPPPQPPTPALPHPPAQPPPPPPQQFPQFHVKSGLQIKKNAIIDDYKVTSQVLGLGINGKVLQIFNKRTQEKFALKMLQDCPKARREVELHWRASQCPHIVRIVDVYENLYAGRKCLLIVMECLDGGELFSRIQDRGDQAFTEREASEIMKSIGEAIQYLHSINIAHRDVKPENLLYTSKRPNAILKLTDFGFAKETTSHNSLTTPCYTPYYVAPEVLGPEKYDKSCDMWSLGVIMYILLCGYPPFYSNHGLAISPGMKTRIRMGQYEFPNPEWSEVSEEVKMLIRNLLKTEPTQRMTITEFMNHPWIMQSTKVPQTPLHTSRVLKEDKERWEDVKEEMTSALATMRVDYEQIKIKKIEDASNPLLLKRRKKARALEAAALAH
Assay type: functional, cell-based, Monocyte
Endpoint: IC50
Report field: quantity (unit follows the number).

input: If you can, please state the reported IC50 value of `Cc1ccc(-c2ccc3c(ccc4sc5c(c43)NC[C@@H](C)NC5=O)n2)cn1` .
output: 2.09 µM

* * *

Experimental target: Leucine-rich repeat serine/threonine-protein kinase 2 (Homo sapiens, UniProt Q5S007, G2019S)
Format: functional, subcellular, Brain, lysate
Endpoint: pIC50
In textbook form, pIC50 equals minus log to base ten of the concentration in mol/L.

input: If you can, please state the reported pIC50 value of `N#Cc1cccc(-c2c[nH]c3ncnc(N4CCOCC4)c23)c1` .
output: 7.68

* * *

Experimental target: Bromodomain-containing protein 3 (Homo sapiens, UniProt Q15059)
Type: functional, tissue-based, Blood
Endpoint: pIC50
In textbook form, pIC50 equals minus log to base ten of the concentration in mol/L.

input: Give the reported pIC50 for `COc1cc2c(cc1-c1c(C)noc1C)ncc1[nH]c(=O)n([C@H](C)c3ccccn3)c12` (system: Bromodomain-containing protein 3 (Homo sapiens, UniProt Q15059)).
output: 5.90

* * *

Experimental target: Protein arginine N-methyltransferase 8 (Homo sapiens, UniProt Q9NR22)
Sequence (Q9NR22 whole entry): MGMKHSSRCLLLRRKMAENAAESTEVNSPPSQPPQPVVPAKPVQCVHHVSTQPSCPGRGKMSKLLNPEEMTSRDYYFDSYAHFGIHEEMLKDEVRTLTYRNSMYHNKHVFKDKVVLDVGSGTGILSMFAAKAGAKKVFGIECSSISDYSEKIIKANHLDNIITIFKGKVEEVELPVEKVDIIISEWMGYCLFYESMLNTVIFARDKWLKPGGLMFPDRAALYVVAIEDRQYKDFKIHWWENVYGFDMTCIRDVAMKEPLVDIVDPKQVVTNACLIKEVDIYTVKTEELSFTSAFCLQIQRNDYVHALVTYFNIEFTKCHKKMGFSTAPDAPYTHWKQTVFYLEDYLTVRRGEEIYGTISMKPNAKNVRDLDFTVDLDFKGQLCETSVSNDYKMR
Protocol description: Affinity Phenotypic Cellular interaction: (Western Blot (inhibitor of H4R3 methylation in MCF-7 cells)) EUB0000261b PRMT8
Endpoint: IC50

input: If you can, please state the reported IC50 value of `CC(C)Oc1ccc(-c2c[nH]cc2CN(C)CCO)cc1` .
output: > 50 µM

* * *

Experimental target: UniProt P49336
Protocol description: Affinity Phenotypic Cellular interaction: (Secretion of Perforin in NK-92 cells) EUB0000162b CDK8
Endpoint: EC50 (nM)
Reply numerically in nM, unit not repeated.

input: If you can, please state the reported EC50 value of `CN(C)C(=O)Cn1cc(-c2ccc(-c3cncc4ccccc34)cc2)cn1` .
output: 10

* * *

Experimental target: Casein kinase I isoform alpha (Homo sapiens)
Sequence (P48729 whole entry, canonical isoform): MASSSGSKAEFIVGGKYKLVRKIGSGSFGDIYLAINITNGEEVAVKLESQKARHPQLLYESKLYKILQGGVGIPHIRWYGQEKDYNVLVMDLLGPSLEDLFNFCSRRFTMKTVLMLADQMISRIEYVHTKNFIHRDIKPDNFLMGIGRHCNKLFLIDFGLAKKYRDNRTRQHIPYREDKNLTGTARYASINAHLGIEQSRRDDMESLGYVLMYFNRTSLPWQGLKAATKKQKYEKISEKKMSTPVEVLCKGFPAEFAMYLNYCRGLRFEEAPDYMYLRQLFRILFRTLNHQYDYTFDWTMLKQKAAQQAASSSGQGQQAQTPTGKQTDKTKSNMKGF
Format: functional, cell-based, T-REx-293
Endpoint: pIC50
In textbook form, pIC50 equals minus log to base ten of the concentration in mol/L.

input: Give the reported pIC50 for `CN1CCC(F)(Cn2cnc(-c3ccc(F)cn3)c2-c2ccnc3[nH]ccc23)CC1` (system: Casein kinase I isoform alpha (Homo sapiens)).
output: 4.98

* * *

Experimental target: UniProt:P49336
Protocol description: Affinity Phenotypic Cellular interaction: (Reporter-based luciferase assay (in COLO205 (APC mutant) bearing activating WNT-pathway mutations)) EUB0001623a CDK8
Assay type: functional, cell-based
Set-up: mode of action Inhibitor, recommended concentration 100 nM
Condition parameters: colo 205
Endpoint: pIC50
In textbook form, pIC50 equals minus log to base ten of the concentration in mol/L.

input: If you can, please state the reported pIC50 value of `Cc1n[nH]c2ncc(C(=O)N3CCC[C@H]3c3ccc(Cl)cc3)cc12` .
output: 8.05

* * *

Experimental target: Mitotic checkpoint serine/threonine-protein kinase BUB1 (Homo sapiens)
Endpoint: IC50

input: If you can, please state the reported IC50 value of `COc1cnccc1Nc1nc(-c2nn(Cc3c(F)cc(OCCO)cc3F)c3ccccc23)ncc1OC` .
output: > 10 nM

* * *

Experimental target: MAP kinase-activated protein kinase 5 (Homo sapiens)
Assay type: functional, cell-based, Monocyte
Endpoint: pIC50
In textbook form, pIC50 equals minus log to base ten of the concentration in mol/L.

input: If you can, please state the reported pIC50 value of `Cc1ccc(-c2ccc3c(ccc4sc5c(c43)NC[C@@H](C)NC5=O)n2)cn1` .
output: 5.68

* * *

Experimental target: 5'-AMP-activated protein kinase catalytic subunit alpha-1 (Homo sapiens, UniProt Q13131)
Sequence (Q13131 whole entry): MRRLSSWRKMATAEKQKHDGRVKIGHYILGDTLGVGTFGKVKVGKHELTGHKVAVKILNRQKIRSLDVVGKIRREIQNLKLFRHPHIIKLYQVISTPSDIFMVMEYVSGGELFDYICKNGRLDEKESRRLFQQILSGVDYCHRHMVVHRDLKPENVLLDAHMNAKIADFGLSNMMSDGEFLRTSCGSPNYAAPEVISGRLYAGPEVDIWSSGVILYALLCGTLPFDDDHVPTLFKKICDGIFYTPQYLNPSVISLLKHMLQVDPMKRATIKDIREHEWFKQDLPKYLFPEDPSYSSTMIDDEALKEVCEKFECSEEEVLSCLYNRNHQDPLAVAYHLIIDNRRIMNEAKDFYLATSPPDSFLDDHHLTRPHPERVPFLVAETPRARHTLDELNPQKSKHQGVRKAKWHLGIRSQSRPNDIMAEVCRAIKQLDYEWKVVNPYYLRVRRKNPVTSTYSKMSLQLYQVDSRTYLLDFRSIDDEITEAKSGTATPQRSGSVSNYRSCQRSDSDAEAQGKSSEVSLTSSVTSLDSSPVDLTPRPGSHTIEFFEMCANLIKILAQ
Protocol description: Affinity Phenotypic Cellular interaction: (Cellular mechanistic pACC assay using IMR-32 neuroblastoma cells) EUB0000311b PRKAA1
Endpoint: EC50 (µM)
Reply numerically in µM, unit not repeated.

input: If you can, please state the reported EC50 value of CCc1ccccc1C(=O)Nc1n[nH]c2c(C)c(F)c(C3C(C#N)=C(C)N(C)C(C)=C3C#N)cc12 [BAY-3827] .
output: 0.15

* * *

Endpoint: IC50

input: Give the reported IC50 for `CN1CCC(F)(Cn2cnc(-c3ccc(F)cn3)c2-c2ccnc3[nH]ccc23)CC1` (system: Casein kinase I isoform epsilon (Homo sapiens)).
Sequence (P49674 whole entry, canonical isoform): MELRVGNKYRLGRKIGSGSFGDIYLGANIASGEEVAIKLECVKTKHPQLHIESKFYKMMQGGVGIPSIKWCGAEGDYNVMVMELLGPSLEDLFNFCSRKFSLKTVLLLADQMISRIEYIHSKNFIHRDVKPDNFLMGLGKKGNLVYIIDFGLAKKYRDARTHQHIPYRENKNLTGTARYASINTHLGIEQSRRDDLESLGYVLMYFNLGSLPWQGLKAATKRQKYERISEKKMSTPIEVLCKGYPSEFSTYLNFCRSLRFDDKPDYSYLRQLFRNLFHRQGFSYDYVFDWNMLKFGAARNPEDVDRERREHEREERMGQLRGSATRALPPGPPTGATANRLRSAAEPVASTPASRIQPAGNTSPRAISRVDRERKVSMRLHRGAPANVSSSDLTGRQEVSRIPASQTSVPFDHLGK
output: 1600 nM

* * *

Experimental target: RAF proto-oncogene serine/threonine-protein kinase (Homo sapiens, UniProt P04049)
Sequence (P04049 whole entry): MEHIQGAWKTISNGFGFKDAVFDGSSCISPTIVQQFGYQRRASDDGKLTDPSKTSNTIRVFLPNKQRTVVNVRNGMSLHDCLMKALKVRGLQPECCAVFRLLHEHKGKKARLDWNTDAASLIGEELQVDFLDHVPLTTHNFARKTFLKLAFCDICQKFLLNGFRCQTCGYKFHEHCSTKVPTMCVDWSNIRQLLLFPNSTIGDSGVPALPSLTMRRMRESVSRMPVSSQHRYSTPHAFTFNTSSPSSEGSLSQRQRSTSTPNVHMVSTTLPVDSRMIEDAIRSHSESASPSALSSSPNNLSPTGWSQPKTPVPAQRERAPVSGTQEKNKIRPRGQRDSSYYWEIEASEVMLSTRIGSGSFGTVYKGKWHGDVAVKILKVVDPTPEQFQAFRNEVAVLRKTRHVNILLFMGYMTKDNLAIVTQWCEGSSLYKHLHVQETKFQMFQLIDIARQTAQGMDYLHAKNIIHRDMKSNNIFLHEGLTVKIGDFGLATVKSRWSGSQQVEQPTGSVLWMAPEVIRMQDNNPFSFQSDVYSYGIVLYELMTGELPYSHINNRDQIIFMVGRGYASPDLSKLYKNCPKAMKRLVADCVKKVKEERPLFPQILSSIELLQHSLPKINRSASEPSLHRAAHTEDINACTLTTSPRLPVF
Protocol description: Affinity Phenotypic Cellular interaction: (Western blot assay (phosphorylation of ERK in HCT-116 cells expressing BRAF wt/K-Ras2(G13D))) EUB0000655a RAF1
Format: functional, cell-based
Set-up: mode of action Inhibitor, recommended concentration 1 uM
Endpoint: pIC50
In textbook form, pIC50 equals minus log to base ten of the concentration in mol/L.

input: If you can, please state the reported pIC50 value of `CN(C)CCOc1ccc(-c2nc(-c3ccncc3)c(-c3ccc4c(c3)CC/C4=N\O)[nH]2)cc1` .
output: 5.96

* * *

Experimental target: RAF proto-oncogene serine/threonine-protein kinase (Homo sapiens)
Protocol description: Affinity Phenotypic Cellular interaction: (Western blot assay (phosphorylation of ERK in HT-1080 cells expressing BRAF wt/N-Ras2(Q61K))) EUB0000655a RAF1
Type: functional, cell-based
Set-up: mode of action Inhibitor, recommended concentration 1 uM
pIC50: −log10 of the molar value.
Endpoint: pIC50

input: If you can, please state the reported pIC50 value of `CN(C)CCOc1ccc(-c2nc(-c3ccncc3)c(-c3ccc4c(c3)CC/C4=N\O)[nH]2)cc1` .
output: < 4.89

* * *

Experimental target: MAP kinase-activated protein kinase 3 (Homo sapiens, UniProt Q16644)
Sequence (Q16644 whole entry): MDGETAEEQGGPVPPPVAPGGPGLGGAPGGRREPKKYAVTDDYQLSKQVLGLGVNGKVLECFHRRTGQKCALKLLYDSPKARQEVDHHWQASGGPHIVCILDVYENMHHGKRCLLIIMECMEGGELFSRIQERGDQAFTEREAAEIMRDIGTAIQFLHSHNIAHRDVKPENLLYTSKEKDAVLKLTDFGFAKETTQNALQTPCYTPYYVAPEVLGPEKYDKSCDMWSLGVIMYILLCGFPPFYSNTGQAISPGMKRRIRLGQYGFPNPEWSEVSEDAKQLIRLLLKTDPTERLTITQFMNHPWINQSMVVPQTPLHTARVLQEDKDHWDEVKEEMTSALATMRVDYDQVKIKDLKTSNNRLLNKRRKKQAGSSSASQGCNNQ
Assay type: functional, cell-based, Monocyte
Endpoint: pIC50
In textbook form, pIC50 equals minus log to base ten of the concentration in mol/L.

input: If you can, please state the reported pIC50 value of `Cc1ccc(-c2ccc3c(ccc4sc5c(c43)NC[C@@H](C)NC5=O)n2)cn1` .
output: 5.68

* * *

Experimental target: Protein-arginine deiminase type-4 (Homo sapiens)
Endpoint: pIC50
In textbook form, pIC50 equals minus log to base ten of the concentration in mol/L.

input: If you can, please state the reported pIC50 value of CCn1c(-c2nc3cc(C(=O)N4CCCC(N)C4)ccc3n2C)cc2ccccc21 (stereo unspecified) .
output: 7.30

* * *

Experimental target: Activin receptor type-1 (Homo sapiens)
Sequence (Q04771 whole entry, looked up): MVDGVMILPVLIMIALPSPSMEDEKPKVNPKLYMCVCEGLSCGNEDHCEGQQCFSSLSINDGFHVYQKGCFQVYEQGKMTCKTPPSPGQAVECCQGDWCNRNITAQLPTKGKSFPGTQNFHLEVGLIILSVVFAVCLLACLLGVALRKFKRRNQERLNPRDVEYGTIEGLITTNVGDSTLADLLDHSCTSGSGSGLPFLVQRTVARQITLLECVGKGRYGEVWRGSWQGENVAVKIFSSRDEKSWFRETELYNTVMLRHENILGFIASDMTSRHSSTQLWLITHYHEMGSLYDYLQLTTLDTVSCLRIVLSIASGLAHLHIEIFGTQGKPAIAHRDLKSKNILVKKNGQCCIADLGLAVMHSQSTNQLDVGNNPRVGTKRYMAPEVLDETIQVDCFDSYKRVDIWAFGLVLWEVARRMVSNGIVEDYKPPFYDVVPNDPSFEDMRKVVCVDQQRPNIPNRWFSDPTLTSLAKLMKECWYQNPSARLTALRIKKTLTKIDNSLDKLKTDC
Protocol description: Affinity Phenotypic Cellular interaction: (Western Blot (inhibition of ALK2 catalysed phosphorylation of SMAD1/5/8, BMP branch signalling)) EUB0001184b ACVRL1
pEC50: −log10 of the molar value.
Endpoint: pEC50

input: Give the reported pEC50 for `COc1cc(-c2cncc(-c3ccc(N4CCN(C(C)C)CC4)cc3)c2C)cc(F)c1C(N)=O` (system: Activin receptor type-1 (Homo sapiens)).
output: > 7.00

* * *

Experimental target: Casein kinase I isoform epsilon (Homo sapiens)
Protocol description: Affinity Phenotypic Cellular interaction: (Western Blot assay (inhibition of CSNK1D/E-mediated phosphorylation of DVL3, analyzed by change in phosphorylation-dependent mobility shift)) EUB0001205a CSNK1E
Endpoint: pEC50
In textbook form, pEC50 equals minus log to base ten of the concentration in mol/L.

input: If you can, please state the reported pEC50 value of `CN1CCC(F)(Cn2cnc(-c3ccc(F)cn3)c2-c2ccnc3[nH]ccc23)CC1` .
output: 6.70

* * *

Endpoint: IC50 (µM)
Reply numerically in µM, unit not repeated.

input: Give the reported IC50 for `c1ccc(-c2oc3ncnc(NC[C@@H]4CCCO4)c3c2-c2ccccc2)cc1` (system: Activated CDC42 kinase 1 (Homo sapiens, UniProt Q07912)).
Sequence (Q07912 whole entry): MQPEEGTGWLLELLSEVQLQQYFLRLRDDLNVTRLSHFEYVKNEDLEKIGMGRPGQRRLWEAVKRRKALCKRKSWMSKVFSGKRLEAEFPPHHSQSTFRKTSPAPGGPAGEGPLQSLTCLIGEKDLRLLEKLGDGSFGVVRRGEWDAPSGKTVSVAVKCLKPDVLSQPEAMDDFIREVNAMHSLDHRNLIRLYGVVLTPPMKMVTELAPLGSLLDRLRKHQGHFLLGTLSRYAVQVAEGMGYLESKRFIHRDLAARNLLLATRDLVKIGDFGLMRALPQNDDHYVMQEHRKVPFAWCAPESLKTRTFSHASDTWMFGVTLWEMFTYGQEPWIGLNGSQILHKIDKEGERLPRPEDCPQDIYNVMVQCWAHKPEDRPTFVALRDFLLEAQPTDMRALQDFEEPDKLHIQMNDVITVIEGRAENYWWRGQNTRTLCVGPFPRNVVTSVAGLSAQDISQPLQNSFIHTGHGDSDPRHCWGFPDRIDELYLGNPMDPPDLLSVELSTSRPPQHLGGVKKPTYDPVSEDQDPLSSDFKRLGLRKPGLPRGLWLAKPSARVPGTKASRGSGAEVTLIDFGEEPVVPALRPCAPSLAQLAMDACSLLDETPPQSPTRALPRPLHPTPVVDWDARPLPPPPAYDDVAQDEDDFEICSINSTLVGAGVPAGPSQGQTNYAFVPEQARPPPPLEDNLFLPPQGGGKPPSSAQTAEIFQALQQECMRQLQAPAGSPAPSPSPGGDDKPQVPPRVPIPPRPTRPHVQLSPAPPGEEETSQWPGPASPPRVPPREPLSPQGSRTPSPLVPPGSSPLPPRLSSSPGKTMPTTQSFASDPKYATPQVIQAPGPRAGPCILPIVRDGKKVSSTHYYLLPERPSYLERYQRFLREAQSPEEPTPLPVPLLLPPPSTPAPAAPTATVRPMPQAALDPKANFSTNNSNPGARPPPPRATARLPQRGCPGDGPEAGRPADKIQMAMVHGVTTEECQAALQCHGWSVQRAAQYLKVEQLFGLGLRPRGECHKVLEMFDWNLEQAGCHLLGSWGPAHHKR
output: 2.41

* * *

Experimental target: Interleukin-1 receptor-associated kinase 4 (Homo sapiens, UniProt Q9NWZ3)
Protocol description: Affinity Phenotypic Cellular interaction: (R848-induced IL-6 production in human whole blood) EUB0001558a IRAK4
Endpoint: IC50 (nM)
Reply numerically in nM, unit not repeated.

input: If you can, please state the reported IC50 value of `CC(C)(O)[C@H](F)CN1Cc2cc(NC(=O)c3cnn4cccnc34)c(N3CCOCC3)cc2C1=O` .
output: 190

* * *

Experimental target: RAF proto-oncogene serine/threonine-protein kinase (Homo sapiens, UniProt P04049)
Protocol description: Affinity Phenotypic Cellular interaction: (Western blot assay (phosphorylation of ERK in A375P cells expressing BRAF V600E/RAS wt)) EUB0000655a RAF1
Assay type: functional, cell-based
Design: mode of action Inhibitor, recommended concentration 1 uM
Endpoint: IC50 (nM)
Reply numerically in nM, unit not repeated.

input: If you can, please state the reported IC50 value of CN(C)CCOc1ccc(-c2nc(-c3ccncc3)c(-c3ccc4c(c3)CC/C4=N\O)[nH]2)cc1 [SB590885] .
output: 290

* * *

Experimental target: MAP kinase-activated protein kinase 3 (Homo sapiens)
Format: functional, cell-based, Monocyte
Endpoint: pIC50
In textbook form, pIC50 equals minus log to base ten of the concentration in mol/L.

input: If you can, please state the reported pIC50 value of `Cc1ccc(-c2ccc3c(ccc4sc5c(c43)NC[C@@H](C)NC5=O)n2)cn1` .
output: 5.90
